The measurements presented in this section are drawn from patent US20110046107A1.

- Test Method Notes: Pharmacokinetic study of the compounds in SD rat (intravenous injection)
- Assay type: in vivo, SD male rats
- Details: SD male rats, intravenous injection 10 mg/kg, plasma, X ± SD, n = 3, read-out: t1/2 (half lives) (converted)
Assay Metric: half-life (min)

# Compound, Assay Metric, Assay Result
data = [
    ("C[C@@H](O)[C@H]1C(=O)N2C(C(=O)O)=C(S[C@@H]3CN[C@H](C(=O)N(C)C)C3)[C@H](C)[C@H]12 [meropenem, Meropenem, reference compound]", "half-life", 7.2),
]

====

Attribute: MIC90
- System: Pseudomonas aeruginosa
- Test Method Notes: In vitro antibacterial activity, agar dilution method (clinical isolates)
- Assay type: cell-based
- Details: clinically isolated strains, Gram-negative

# Molecule, Target Of Assay, Measurement Units, MIC90
measured = [
    ("CCN(CC)S(=O)(=O)N1CC(SC2=C(C(=O)O)N3C(=O)[C@H]([C@@H](C)O)[C@H]3[C@H]2C)C1 [Compound 7]", "Pseudomonas aeruginosa", "µg/mL", 8),
    ("C[C@@H](O)[C@H]1C(=O)N2C(C(=O)O)=C(SC3CNCN(S(N)(=O)=O)C3)[C@H](C)[C@H]12 (stereo partly drawn) [Compound 5]", "Pseudomonas aeruginosa", "µg/mL", 16),
    ("C[C@@H](O)[C@H]1C(=O)N2C(C(=O)O)=C(S[C@@H]3CN[C@H](CNS(N)(=O)=O)C3)[C@H](C)[C@H]12 [doripenem, Doripenem, reference compound]", "Pseudomonas aeruginosa", "µg/mL", 8),
    ("C[C@@H](O)[C@H]1C(=O)N2C(C(=O)O)=C(SC3CN(S(N)(=O)=O)C3)[C@H](C)[C@H]12 [Compound 1]", "Pseudomonas aeruginosa", "µg/mL", 4),
    ("C[C@@H](O)[C@H]1C(=O)N2C(C(=O)[O-])=C(SC3CN(S(=O)(=O)NCC(O)CN)C3)[C@H](C)[C@H]12.[Na+] (stereo partly drawn) [sodium salt of compound 9]", "Pseudomonas aeruginosa", "µg/mL", 16),
    ("C[C@@H](O)[C@H]1C(=O)N2C(C(=O)O)=C(S[C@H]3CCN(S(N)(=O)=O)C3)[C@H](C)[C@H]12 [Compound 2]", "Pseudomonas aeruginosa", "µg/mL", 8),
]

====

- Test Method Notes: Pharmacokinetic study of the compounds in SD rat (intravenous injection)
- Format: in vivo, SD male rats
- Details: in vivo, SD male rats, intravenous injection 10 mg/kg, plasma, X ± SD, n = 3, read-out: t1/2 (half lives) (converted)
Assay Metric: half-life (min)

# Compound, Measurement Units, Assay Result
measured = [
    ("C[C@@H](O)[C@H]1C(=O)N2C(C(=O)O)=C(SC3CN(S(=O)(=O)N(C)C)C3)[C@H](C)[C@H]12", "min", 18),
    ("C[C@@H](O)[C@H]1C(=O)N2C(C(=O)O)=C(SC3CN(S(=O)(=O)NCC(O)CN)C3)[C@H](C)[C@H]12 (stereo partly shown)", "min", 19.2),
    ("C[C@@H](O)[C@H]1C(=O)N2C(C(=O)O)=C(SC3CN(S(N)(=O)=O)C3)[C@H](C)[C@H]12", "min", 19.2),
    ("CCCCN(CCCC)S(=O)(=O)N1CC(SC2=C(C(=O)O)N3C(=O)[C@H]([C@@H](C)O)[C@H]3[C@H]2C)C1", "min", 16.2),
]

====

- Test system: penicillin-sensitive streptococcus pneumoniae (PSSP)
- Test Method Notes: In vitro antibacterial activity, agar dilution method (clinical isolates)
- Type: cell-based
- Details: clinically isolated strains, Gram-positive, read-out: MIC90 S. pneumoniae PSSP
- Excerpt: […]
Attribute: MIC90

# Compound, MIC90 / ng/mL
measured = [
    ("C[C@@H](O)[C@H]1C(=O)N2C(C(=O)O)=C(SC3CNCN(S(N)(=O)=O)C3)[C@H](C)[C@H]12 (stereo partly shown) [Compound 5]", 16),
    ("C[C@@H](O)[C@H]1C(=O)N2C(C(=O)O)=C(S[C@@H]3CN[C@H](C(=O)Nc4cccc(C(=O)O)c4)C3)[C@H](C)[C@H]12 [ertapenem, Ertapenem, reference compound]", 63),
    ("C[C@@H](O)[C@H]1C(=O)N2C(C(=O)O)=C(SC3CN(S(=O)(=O)N(C)C)C3)[C@H](C)[C@H]12 [Compound 6]", 4),
    ("CCCCN(CCCC)S(=O)(=O)N1CC(SC2=C(C(=O)O)N3C(=O)[C@H]([C@@H](C)O)[C@H]3[C@H]2C)C1 [Compound 8]", 4),
]

====

Attribute: MIC90
- Test system: Pseudomonas aeruginosa
- Test Method Notes: In vitro antibacterial activity, agar dilution method (clinical isolates)
- Format: cell-based
- Details: clinically isolated strains, Gram-negative
Assay Metric: MIC90 (mg/L)

# Compound, Measurement Units, Assay Result
rows = [
    ("C[C@@H](O)[C@H]1C(=O)N2C(C(=O)O)=C(S[C@@H]3CN[C@H](C(=O)N(C)C)C3)[C@H](C)[C@H]12 [meropenem, Meropenem, reference compound]", "mg/L", 16),
    ("C[C@@H](O)[C@H]1C(=O)N2C(C(=O)O)=C(SC3CN=CN(S(N)(=O)=O)C3)[C@H](C)[C@H]12 (stereo partly shown)", "mg/L", 32),
    ("C[C@@H](O)[C@H]1C(=O)N2C(C(=O)O)=C(SC3CN(S(=O)(=O)NCC(N)=O)C3)[C@H](C)[C@H]12", "mg/L", 8),
    ("C[C@@H](O)[C@H]1C(=O)N2C(C(=O)O)=C(SC3CCCN(S(N)(=O)=O)C3)[C@H](C)[C@H]12 (stereo partly shown)", "mg/L", 16),
    ("C[C@@H](O)[C@H]1C(=O)N2C(C(=O)O)=C(SC3CN(S(=O)(=O)N(C)C)C3)[C@H](C)[C@H]12", "mg/L", 16),
    ("CCCCN(CCCC)S(=O)(=O)N1CC(SC2=C(C(=O)O)N3C(=O)[C@H]([C@@H](C)O)[C@H]3[C@H]2C)C1", "mg/L", 8),
    ("C[C@@H](O)[C@H]1C(=O)N2C(C(=O)O)=C(S[C@@H]3CN[C@H](C(=O)Nc4cccc(C(=O)O)c4)C3)[C@H](C)[C@H]12 [ertapenem, Ertapenem, reference compound]", "mg/L", 32),
]

====

Attribute: MIC90
- System: Morganella morganii
- Test Method Notes: In vitro antibacterial activity, agar dilution method (clinical isolates)
- Type: cell-based
- Details: clinically isolated strains, Gram-negative
Assay Metric: MIC90 (µg/mL)

# Compound, Target Of Assay, Measurement Units, Assay Result
rows = [
    ("CCN(CC)S(=O)(=O)N1CC(SC2=C(C(=O)O)N3C(=O)[C@H]([C@@H](C)O)[C@H]3[C@H]2C)C1", "Morganella morganii", "µg/mL", 0.063),
    ("C[C@@H](O)[C@H]1C(=O)N2C(C(=O)O)=C(SC3CNCN(S(N)(=O)=O)C3)[C@H](C)[C@H]12 (stereo partly shown)", "Morganella morganii", "µg/mL", 0.063),
    ("C[C@@H](O)[C@H]1C(=O)N2C(C(=O)O)=C(SC3CN(S(=O)(=O)N(C)C)C3)[C@H](C)[C@H]12", "Morganella morganii", "µg/mL", 0.063),
    ("C[C@@H](O)[C@H]1C(=O)N2C(C(=O)[O-])=C(SC3CN(S(=O)(=O)NCC(O)CN)C3)[C@H](C)[C@H]12.[Na+] (stereo partly shown) [sodium salt of compound 9]", "Morganella morganii", "µg/mL", 0.032),
    ("C[C@@H](O)[C@H]1C(=O)N2C(C(=O)O)=C(SC3CCCN(S(N)(=O)=O)C3)[C@H](C)[C@H]12 (stereo partly shown)", "Morganella morganii", "µg/mL", 0.032),
    ("CCCCN(CCCC)S(=O)(=O)N1CC(SC2=C(C(=O)O)N3C(=O)[C@H]([C@@H](C)O)[C@H]3[C@H]2C)C1", "Morganella morganii", "µg/mL", 0.032),
    ("C[C@@H](O)[C@H]1C(=O)N2C(C(=O)O)=C(SC3CN=CN(S(N)(=O)=O)C3)[C@H](C)[C@H]12 (stereo partly shown)", "Morganella morganii", "µg/mL", 0.063),
    ("C[C@@H](O)[C@H]1C(=O)N2C(C(=O)O)=C(S[C@@H]3CN[C@H](CNS(N)(=O)=O)C3)[C@H](C)[C@H]12 [doripenem, Doripenem, reference compound]", "Morganella morganii", "µg/mL", 0.063),
    ("C[C@@H](O)[C@H]1C(=O)N2C(C(=O)O)=C(S[C@@H]3CN[C@H](C(=O)N(C)C)C3)[C@H](C)[C@H]12 [meropenem, Meropenem, reference compound]", "Morganella morganii", "µg/mL", 0.063),
    ("C[C@@H](O)[C@H]1C(=O)N2C(C(=O)O)=C(SC3CN(S(=O)(=O)NCC(N)=O)C3)[C@H](C)[C@H]12", "Morganella morganii", "µg/mL", 0.016),
    ("C[C@@H](O)[C@H]1C(=O)N2C(C(=O)O)=C(S[C@@H]3CN[C@H](C(=O)Nc4cccc(C(=O)O)c4)C3)[C@H](C)[C@H]12 [ertapenem, Ertapenem, reference compound]", "Morganella morganii", "µg/mL", 0.25),
    ("C[C@@H](O)[C@H]1C(=O)N2C(C(=O)O)=C(SC3CN(S(N)(=O)=O)C3)[C@H](C)[C@H]12", "Morganella morganii", "µg/mL", 0.032),
    ("C[C@@H](O)[C@H]1C(=O)N2C(C(=O)O)=C(S[C@H]3CCN(S(N)(=O)=O)C3)[C@H](C)[C@H]12", "Morganella morganii", "µg/mL", 0.063),
]
